What pIC50 was measured for each of the following?
Target: cloned human 5HT1A receptors (Homo sapiens, UniProt P08908)
Convention used: pIC50 is expressed as -log10 of the molar concentration.

Entry Cc1ccc2c3c(ccc2n1)OCC(CN1CC=C(c2c[nH]c4ccccc24)CC1)O3 (centres unmarked) [Example 9] : reported pIC50 = ?
7.25

Field entry: COc1ccc2[nH]cc(C3=CCN(C[C@H]4COc5ccc6ncccc6c5O4)CC3)c2c1 [Example 1]
6.49

Field entry: Fc1ccc2[nH]cc(C3=CCN(CC4COc5cc(F)c6ncccc6c5O4)CC3)c2c1 (centres unmarked) [Example 15]
5.99

Field entry: Fc1ccc2[nH]cc(CC3CCN(C[C@H]4COc5ccc6ncccc6c5O4)CC3)c2c1 [Example 3]
6.92

Field entry: Cc1ccc2[nH]cc(C3=CCN(CC4COc5ccc6nc(C)ccc6c5O4)CC3)c2c1 (centres unmarked) [Example 22]
6.30

Field entry: C1=C(c2c[nH]c3ccccc23)CCN(C[C@H]2COc3ccc4ncccc4c3O2)C1 [Example 4]
6.65

Field entry: Cc1ccc2c3c(ccc2n1)OCC(CN1CC=C(c2c[nH]c4ccc(F)cc24)CC1)O3 (centres unmarked) [Example 11]
6.92

Field entry: CCc1ccc2c3c(ccc2n1)OCC(CN1CC=C(c2c[nH]c4ccc(F)cc24)CC1)O3 (centres unmarked) [Example 14]
6.78

----------
Target: cloned human 5HT1A receptors (Homo sapiens)
Construct: expressed in transfected cells
Sequence (P08908 1-422): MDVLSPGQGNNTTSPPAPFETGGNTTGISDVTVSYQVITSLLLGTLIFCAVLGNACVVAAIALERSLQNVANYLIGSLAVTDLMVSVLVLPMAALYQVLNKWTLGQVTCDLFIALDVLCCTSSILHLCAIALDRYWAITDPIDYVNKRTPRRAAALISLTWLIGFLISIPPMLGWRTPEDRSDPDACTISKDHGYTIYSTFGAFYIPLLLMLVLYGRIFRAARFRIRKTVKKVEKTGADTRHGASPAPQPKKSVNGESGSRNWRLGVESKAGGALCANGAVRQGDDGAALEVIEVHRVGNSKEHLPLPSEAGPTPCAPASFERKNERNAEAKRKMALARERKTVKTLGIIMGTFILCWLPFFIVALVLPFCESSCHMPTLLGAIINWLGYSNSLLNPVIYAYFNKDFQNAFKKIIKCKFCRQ
Experiment: 35S-GTPγS binding assay, antagonist activity at 5HT1A receptors
Format: biochemical
Conditions: maximum inhibitory effect in 35S-GTPγS binding versus 8-OH-DPAT; read-out: 5HT1A Function (Imax)
What Emax was measured for each of the following?
Field: numeric (%). Do not append units.

Entry Cc1ccc2c3c(ccc2n1)OCC(CN1CC=C(c2c[nH]c4ccc(F)cc24)CC1)O3 (stereo not shown) : reported Emax = ?
100

Field entry: "COc1ccc2[nH]cc(C3=CCN(C[C@H]4COc5ccc6ncccc6c5O4)CC3)c2c1"
100

Field entry: CCc1ccc2c3c(ccc2n1)OCC(CN1CC=C(c2c[nH]c4ccccc24)CC1)O3 (stereo not shown)
88.7

Field entry: Cc1ccc2[nH]cc(C3=CCN(CC4COc5ccc6nc(C)ccc6c5O4)CC3)c2c1 (stereo not shown)
100

Field entry: Fc1ccc2[nH]cc(C3=CCN(CC4COc5cc(F)c6ncccc6c5O4)CC3)c2c1 (stereo not shown)
100

Field entry: "Cn1cc(C2=CCN(C[C@H]3COc4ccc5ncccc5c4O3)CC2)c2cc(F)ccc21"
100

Field entry: "C1=C(c2c[nH]c3ccccc23)CCN(C[C@H]2COc3ccc4ncccc4c3O2)C1"
87

Field entry: Cc1ccc2c3c(ccc2n1)OCC(CN1CCC(c2c[nH]c4ccccc24)CC1)O3 (stereo not shown)
100

Field entry: "COc1cc2c(c3cccnc13)O[C@@H](CN1CC=C(c3c[nH]c4ccc(F)cc34)CC1)CO2"
100

Field entry: Cc1ccc2c3c(ccc2n1)OCC(CN1CC=C(c2c[nH]c4ccccc24)CC1)O3 (stereo not shown)
98.3

Field entry: CCc1ccc2c3c(ccc2n1)OCC(CN1CC=C(c2c[nH]c4ccc(F)cc24)CC1)O3 (stereo not shown)
100

Field entry: Cc1ccc2c3c(ccc2n1)OCC(CN1CC=C(c2c[nH]c4cc(F)ccc24)CC1)O3 (stereo not shown)
100

Field entry: "Cc1ccc2c3c(ccc2n1)OC[C@H](CN1CC=C(c2c[nH]c4c(F)cccc24)CC1)O3"
100

Field entry: "Fc1ccc2[nH]cc(C3=CCN(C[C@H]4COc5ccc6ncccc6c5O4)CC3)c2c1"
100

Field entry: "Fc1ccc2[nH]cc(CC3CCN(C[C@H]4COc5ccc6ncccc6c5O4)CC3)c2c1"
90

Field entry: "Nc1ccc2c3c(ccc2n1)OC[C@H](CN1CC=C(c2c[nH]c4ccc(F)cc24)CC1)O3"
100

----------
Counter-ions that a name gives are not always drawn.
What melting point was measured for each of the following?
Field: numeric (°C). Do not append units.

Entry COc1cc2c(c3cccnc13)O[C@@H](CN1CC=C(c3c[nH]c4ccc(F)cc34)CC1)CO2 (as salt: fumarate) : reported melting point = ?
217

Field entry: Fc1ccc2[nH]cc(C3=CCN(C[C@H]4COc5ccc6ncccc6c5O4)CC3)c2c1 (hydrate or solvate)
184

Field entry: Fc1ccc2[nH]cc(CC3CCN(C[C@H]4COc5ccc6ncccc6c5O4)CC3)c2c1 (as salt: oxalate)
184

Field entry: Fc1cc2c(c3cccnc13)OC(CN1CC=C(c3c[nH]c4ccccc34)CC1)CO2 (stereo not shown)
215

----------
Molecular target: human 5HT1A receptors (Homo sapiens, UniProt P08908)
Construct: expressed in transfected cells; host or cells: CHO cells
Test: [3H] 8-OH-DPAT displacement from the 5HT1A serotonin receptor (transfected CHO cells)
Format: binding
Conditions: displacement of [3H] 8-OH-DPAT; CHO cells stably transfected with human 5HT1A receptors; read-out: 5HT1A Receptor Affinity KI
What log10 Ki was measured for each of the following?
Answers are given as log10 of Ki in nM.

Entry N#Cc1ccc2[nH]cc(C3=CCN(CC4COc5ccc6ncccc6c5O4)CC3)c2c1 (stereo not shown) [Example 5] : reported log10 Ki = ?
1.29

Field entry: Cc1cnc2ccc3c(c2c1)OC(CN1CC=C(c2c[nH]c4ccccc24)CC1)CO3 (stereo not shown) [Example 23]
0.89

Field entry: Fc1cc2c(c3cccnc13)OC(CN1CC=C(c3c[nH]c4ccccc34)CC1)CO2 (stereo not shown) [Example 16]
1.75

Field entry: NC(=O)c1ccc2[nH]cc(C3=CCN(C[C@H]4COc5ccc6ncccc6c5O4)CC3)c2c1 [Example 6]
0.97

Field entry: Fc1ccc2[nH]cc(CC3CCN(C[C@H]4COc5ccc6ncccc6c5O4)CC3)c2c1 [Example 3]
1.24

Field entry: COc1cc2c(c3cccnc13)O[C@@H](CN1CC=C(c3c[nH]c4ccc(F)cc34)CC1)CO2 [Example 17]
2.50

Field entry: Cc1ccc2c3c(ccc2n1)OCC(CN1CCC(Cc2c[nH]c4ccc(F)cc24)CC1)O3 (stereo not shown) [Example 8]
0.86

----------
What melting point was measured for each of the following?
Structures can show the parent of a compound that is named as a salt.

Entry Nc1ccc2c3c(ccc2n1)OC[C@H](CN1CC=C(c2c[nH]c4ccc(F)cc24)CC1)O3 (as salt: fumarate) (hydrate or solvate) : reported melting point = ?
245 °C

Field entry: CCc1ccc2c3c(ccc2n1)OCC(CN1CC=C(c2c[nH]c4ccc(F)cc24)CC1)O3 (stereo not drawn) (as salt: fumarate) (hydrate or solvate)
143 to 144 °C

Field entry: Cc1ccc2c3c(ccc2n1)OCC(CN1CC=C(c2c[nH]c4cc(F)ccc24)CC1)O3 (stereo not drawn) (as salt: oxalate) (hydrate or solvate)
140 to 143 °C

----------
Data export: IC50 values recorded with cloned human 5HT1A receptors (Homo sapiens).
Field: numeric (nM). Do not append units.

Entry CCc1ccc2c3c(ccc2n1)OCC(CN1CC=C(c2c[nH]c4ccccc24)CC1)O3 (stereo not shown) : reported IC50 = ?
162

Field entry: "COc1cc2c(c3cccnc13)O[C@@H](CN1CC=C(c3c[nH]c4ccc(F)cc34)CC1)CO2"
1410

Field entry: Cc1ccc2c3c(ccc2n1)OCC(CN1CCC(c2c[nH]c4ccccc24)CC1)O3 (stereo not shown)
85.7

Field entry: "Cc1ccc2c3c(ccc2n1)OC[C@H](CN1CC=C(c2c[nH]c4c(F)cccc24)CC1)O3"
51.7

----------
Biological target: human 5HT1A receptors (Homo sapiens, UniProt P08908)
Construct: expressed in transfected cells; host or cells: CHO cells
Sequence (P08908 1-422): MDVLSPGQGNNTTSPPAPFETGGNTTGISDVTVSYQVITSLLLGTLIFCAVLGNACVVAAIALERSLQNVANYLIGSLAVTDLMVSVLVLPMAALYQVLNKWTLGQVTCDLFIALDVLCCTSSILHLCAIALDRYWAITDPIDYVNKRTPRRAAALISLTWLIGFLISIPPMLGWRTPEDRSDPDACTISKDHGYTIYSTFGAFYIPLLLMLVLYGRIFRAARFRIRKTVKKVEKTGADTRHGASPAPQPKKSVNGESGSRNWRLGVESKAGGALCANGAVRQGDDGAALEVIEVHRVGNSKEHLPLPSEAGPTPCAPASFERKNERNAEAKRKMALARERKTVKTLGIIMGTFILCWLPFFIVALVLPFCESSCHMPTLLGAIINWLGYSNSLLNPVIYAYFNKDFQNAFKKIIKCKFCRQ
Test: [3H] 8-OH-DPAT displacement from the 5HT1A serotonin receptor (transfected CHO cells)
Format: binding
VALUE_TYPE: pKi
Convention used: pKi is expressed as -log10 of the molar concentration.

Entry Cc1ccc2c3c(ccc2n1)OCC(CN1CC=C(c2c[nH]c4cc(F)ccc24)CC1)O3 (stereo not shown) : reported pKi = ?
8.17

Field entry: "C1=C(c2c[nH]c3ccccc23)CCN(C[C@H]2COc3ccc4ncccc4c3O2)C1"
8.32

Field entry: "COc1ccc2[nH]cc(C3=CCN(C[C@H]4COc5ccc6ncccc6c5O4)CC3)c2c1"
8.03

Field entry: Cc1ccc2[nH]cc(C3=CCN(CC4COc5ccc6nc(C)ccc6c5O4)CC3)c2c1 (stereo not shown)
7.46
